system: RAW-Dual (murine macrophage reporter line); assay: IRF reporter (Lucia luciferase) activity fold change vs agonist alone; higher = enhanced IRF activity; conditions: modulator concentration 10 µM; agonist: LPS 0.1 ug/mL

- COMPOUND: "CN1CC[C@H](c2c(O)cc(O)c3c(=O)cc(-c4ccccc4Cl)oc23)[C@H](O)C1"
  IRF reporter: 0.0166
- COMPOUND: "Nc1nc(=O)n([C@@H]2CS[C@H](CO)O2)cc1F"
  IRF reporter: 0.98
- COMPOUND: "CCOc1ccc(CC(=O)NC2(c3nc(-c4ccccc4)no3)CCCCC2)cc1OCC"
  IRF reporter: 1.24
- COMPOUND: "Cn1ccc(C(=O)Nc2nc(C(C)(C)C)cs2)n1"
  IRF reporter: 1.31
- COMPOUND: "O=C1C(CCS(=O)c2ccccc2)C(=O)N(c2ccccc2)N1c1ccccc1 (stereo unspecified)"
  IRF reporter: 1.22
- COMPOUND: "O=C1[C@H](CC[C@H](O)c2ccc(F)cc2)[C@@H](c2ccc(O)cc2)N1c1ccc(F)cc1"
  IRF reporter: 0.98
- COMPOUND: "Cn1nc(CNS(=O)(=O)c2cccc(C(F)(F)F)c2)c2c1CCOC2"
  IRF reporter: 1.05
- COMPOUND: "CC1CCc2nc(NC(=O)C3CCCN3S(C)(=O)=O)sc2C1 (stereo unspecified)"
  IRF reporter: 1.35
- COMPOUND: "O=C(Nc1ccccc1Cl)c1ccc(OCC2CCCO2)nc1 (stereo unspecified)"
  IRF reporter: 1
- COMPOUND: "COc1ccc(CNCc2ccc3ccccc3c2)c(OC)c1"
  IRF reporter: 1.74
- COMPOUND: "COC(=O)C1=C(C)NC(C)=C(C(=O)OC)C1c1ccccc1[N+](=O)[O-]"
  IRF reporter: 0.585
